- tgt: UniProt:P03372
- Sequence (P03372 whole entry): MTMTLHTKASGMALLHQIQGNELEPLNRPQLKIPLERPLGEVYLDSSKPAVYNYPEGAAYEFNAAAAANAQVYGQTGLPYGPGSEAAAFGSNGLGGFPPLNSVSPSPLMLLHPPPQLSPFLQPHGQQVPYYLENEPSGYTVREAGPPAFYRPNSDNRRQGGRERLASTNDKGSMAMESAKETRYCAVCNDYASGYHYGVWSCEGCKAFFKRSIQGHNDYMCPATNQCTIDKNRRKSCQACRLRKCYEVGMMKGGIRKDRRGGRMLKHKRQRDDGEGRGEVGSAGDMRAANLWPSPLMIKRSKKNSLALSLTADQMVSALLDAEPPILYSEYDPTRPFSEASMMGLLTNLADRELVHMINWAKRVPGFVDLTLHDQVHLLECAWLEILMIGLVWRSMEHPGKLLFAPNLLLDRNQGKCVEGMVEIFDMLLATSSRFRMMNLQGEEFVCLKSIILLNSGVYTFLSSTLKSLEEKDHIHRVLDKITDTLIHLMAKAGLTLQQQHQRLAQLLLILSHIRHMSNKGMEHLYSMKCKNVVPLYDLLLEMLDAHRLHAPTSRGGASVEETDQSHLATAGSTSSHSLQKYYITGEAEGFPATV
pIC50: −log10 of the molar value.
Entry flag: 1 (yes) if pIC50 reaches 7; 0 (no) if it does not.

Some entries whose results are on file:
smiles_repr	label_class
CC/C(=C(\c1ccccc1)c1cccc(OCCCN2CCCC2)c1)c1ccccc1	0 (no)
CC/C(=C(\c1ccc(O)cc1)c1cccc(OCCN(C)C)c1)c1ccccc1	1 (yes)
CC/C(=C(\c1ccc(O)cc1)c1cccc(OCCN2CCCC2)c1)c1ccccc1	1 (yes)
CC/C(=C(\c1ccccc1)c1cccc(OCCN2CCCCC2)c1)c1ccccc1	0 (no)

Q: Exam item: decide whether the reported pIC50 for `CC/C(=C(\c1ccc(O)cc1)c1cccc(OCCN(CC)CC)c1)c1ccccc1` is at least 7.
Result: 1 (yes)

Q: Exam item: decide whether the reported pIC50 for `CC/C(=C(\c1ccc(O)cc1)c1cccc(OCCCN(C)C)c1)c1ccccc1` is at least 7.
Result: 1 (yes)

Q: Exam item: decide whether the reported pIC50 for `CC/C(=C(\c1ccccc1)c1cccc(OCCN(CC)CC)c1)c1ccccc1` is at least 7.
Result: 0 (no)
